Conversion Rates, sec-alcohol to corresponding ketone values for the compounds below.
test system: Methanomonas methylovora ATCC 21852 (Obligate); assay: sec-alcohols to ketones by resting cell suspensions; format: cell-based; conditions: methylamine-grown cells
RECORDED ENDPOINT: Conversion Rates, sec-alcohol to corresponding ketone (μmoles/hr/mg protein)

> print(dat)
                       compound                               test.system              unit.tag  experimental.value
1    CCC(C)O (stereo not shown)  Methanomonas methylovora ATCC 21852 (Obligate)  μmoles/hr/mg protein                 3.2
2                        CC(C)O  Methanomonas methylovora ATCC 21852 (Obligate)  μmoles/hr/mg protein                0.82
3  CCCCC(C)O (stereo not shown)  Methanomonas methylovora ATCC 21852 (Obligate)  μmoles/hr/mg protein                0.09
4   CCCC(C)O (stereo not shown)  Methanomonas methylovora ATCC 21852 (Obligate)  μmoles/hr/mg protein                 1.0

====

tested on: Methylococcus capsulatus, Texas (ATCC 19069); test: sec-alcohols to ketones by resting cell suspensions; type: cell-based; settings: cells grown on methane
Conversion Rates, sec-alcohol to corresponding ketone values for the compounds below.
RECORDED ENDPOINT: Conversion Rates, sec-alcohol to corresponding ketone (μmoles/hr/mg protein)

> print(dat)
                       compound                               test.system  experimental.value
1    CCC(C)O (stereo not shown)  Methylococcus capsulatus, Texas (ATCC 19069)                0.60
2   CCCC(C)O (stereo not shown)  Methylococcus capsulatus, Texas (ATCC 19069)                 2.5
3                        CC(C)O  Methylococcus capsulatus, Texas (ATCC 19069)                0.80
4  CCCCC(C)O (stereo not shown)  Methylococcus capsulatus, Texas (ATCC 19069)                 1.0

====

test system: Hansenula polymorpha ATCC 26012; test: sec-alcohols to ketones by cell suspensions of yeasts; type: cell-based; details: Growth Substrate Ethanol
RECORDED ENDPOINT: Conversion Rate, sec-alcohol to corresponding ketone

> print(dat)
                       compound            experimental.value
1   CCCC(C)O (stereo not shown)   1.1 μmoles/hr/mg of protein
2  CCCCC(C)O (stereo not shown)  0.54 μmoles/hr/mg of protein
3                        CC(C)O   5.0 μmoles/hr/mg of protein
4    CCC(C)O (stereo not shown)   4.8 μmoles/hr/mg of protein

====

test system: purified secondary alcohol dehydrogenase; experiment: inhibition of purified yeast SADH; type: biochemical, Pichia sp. NRRL Y-11,328; settings: primary alcohols tested at 10^-3 M
RECORDED ENDPOINT: inhibition of purified yeast secondary alcohol dehydrogenase activity

> print(dat)
                                   compound  experimental.value
1  O=S(=O)([O-])[O-].[Cu+2] [cupric sulfate]           inhibited
2                                c1c[nH]cn1  strongly inhibited
3                    c1cnc2c(c1)ccc1cccnc12  strongly inhibited
4   N#C[S][Hg][S]C#N [mercuric thiocyanate]           inhibited
5  N[C@@H](CCC(=O)N[C@@H](CS)C(=O)NCC(=O)O)C(=O)O  strongly inhibited
6  O=C(O)c1cc[c]([Hg+])cc1.[OH-] [p-hydroxymercuribenzoate]  strongly inhibited
7   O=[N+]([O-])[O-].[Ag+] [silver nitrate]           inhibited
